Provenance of the data: patent US6413992B1

measured.attribute: melting point

Consider the following illustrative entries.
Cn1nc(-c2nc(Cl)ccc2Cl)nc1-c1ccc(Cl)cc1 [Compound 156]: 98 to 102 °C
Cn1nc(-c2c(Cl)cncc2Cl)nc1-c1ccc(Cl)cc1Cl [Compound 7]: 79 to 81 °C

# input compound: Cn1nc(-c2c(Cl)cncc2Cl)nc1C1(C)CC1(Cl)Cl (centres unmarked) [Compound 133] ; wanted: its melting point
79 to 83 °C

Look at this compound and give its reported melting point. Cn1nc(-c2ncc(Cl)cc2Cl)nc1-c1ccc(Cl)cc1 [Compound 158]
105 to 107 °C

Name the reported melting point value associated with the compound Cc1nc(-c2c(Cl)cncc2Cl)nn1-c1ccc(Cl)cc1 [Example 19]
142 to 145 °C

Which measured melting point value corresponds to Cn1nc(-c2c(Cl)cncc2Cl)nc1-c1ccncc1 [Compound 113] ?
130 to 132 °C

Looking for the measured melting point of Cc1ccc(-c2nc(-c3ncccc3Cl)nn2C)cc1 [Compound 159] , can you help?
113 to 117 °C

Please report the recorded melting point for Cn1nc(-c2nc(F)c(F)c(F)c2F)nc1-c1ccc(Cl)cc1 [Compound 155] .
154 to 156 °C
